# Test System: B. subtilis ArsC (Bs_ArsC), reduced state re-ArsC (Bacillus subtilis)
# Construct: full-length, 139 residues; recombinant, prepared as previously reported; reduced state (C10, C82, C89 free thiols)
# Sequence (P45947 1-139): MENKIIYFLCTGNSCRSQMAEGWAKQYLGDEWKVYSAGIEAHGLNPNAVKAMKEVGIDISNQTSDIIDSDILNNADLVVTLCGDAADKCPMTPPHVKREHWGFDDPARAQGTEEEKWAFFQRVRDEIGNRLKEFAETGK
# Protocol: isothermal titration calorimetry
Reported Property: Kd (µM)
Reply with just the number (in µM).

Task item: Specify reported Kd for the compound shown: O=S(=O)(O)O [sulfate]
Reply: 700
